Values compiled from patent US20160237059A1.

MEASURED_ON: human CCR2 (Homo sapiens, UniProt P41597)
Sequence (P41597 1-360 isoform P41597-2): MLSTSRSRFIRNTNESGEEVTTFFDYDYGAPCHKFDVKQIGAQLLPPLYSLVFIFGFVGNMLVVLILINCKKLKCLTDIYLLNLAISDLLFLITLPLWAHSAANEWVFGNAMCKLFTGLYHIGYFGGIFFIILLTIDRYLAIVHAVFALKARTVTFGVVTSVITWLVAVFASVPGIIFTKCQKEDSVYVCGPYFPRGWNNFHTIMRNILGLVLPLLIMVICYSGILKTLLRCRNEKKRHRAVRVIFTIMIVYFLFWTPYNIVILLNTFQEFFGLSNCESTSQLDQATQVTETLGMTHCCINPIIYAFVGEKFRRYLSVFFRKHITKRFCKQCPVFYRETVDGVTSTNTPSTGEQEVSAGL
MEASUREMENT_PROTOCOL: Functional Ca2+ release test (B-1)
MEASUREMENT_CONTEXT: Chem-1 cell line transfected with human CCR2; 50% inhibition of the MCP-1 effect, MCP-1 at EC50 (about 5 nM); in some cases means of several determinations
pIC50: −log10 of the molar value.
TEST_READOUT: pIC50

[[record]]
molecule = "Cn1ccc(-c2nc(C(F)(F)F)c(Oc3ccc(Cl)c(Cl)c3)c(=O)[nH]2)n1 [Example 225]"
numeric_result = 9.52

[[record]]
molecule = "CC1(C)NC(c2nc(C(F)(F)F)c(Oc3ccc(Cl)c(C(F)(F)F)c3)c(=O)[nH]2)=NO1 [Example 87]"
numeric_result = 7.85

[[record]]
molecule = "CS(=O)(=O)c1cccnc1-c1nc(C(F)(F)F)c(Oc2ccc(Cl)c(Cl)c2)c(=O)[nH]1 [Example 268]"
numeric_result = 8.24

[[record]]
molecule = "Nc1ccc(-c2nc(C(F)(F)F)c(Oc3ccc(Cl)c(Cl)c3)c(=O)[nH]2)nc1 [Example 123]"
numeric_result = 9.22

[[record]]
molecule = "O=c1[nH]c(-c2ncccc2F)nc(C(F)(F)F)c1Cc1ccc(Cl)c(Cl)c1 [Example 17]"
numeric_result = 8.85

[[record]]
molecule = "COCc1nc(-c2nc(C(F)(F)F)c(Oc3ccc(Cl)c(Cl)c3)c(=O)[nH]2)no1 [Example 81]"
numeric_result = 7.72


A = O=c1[nH]c(-c2ncccc2F)nc(C(F)(F)F)c1Oc1ccc(Cl)c(C(F)(F)F)c1 [Example 39]
B = O=c1[nH]c(-c2cccc(Cl)n2)nc(C(F)(F)F)c1Oc1ccc(Cl)c(Cl)c1 [Example 10]
Two entries are listed, A and B . Which one carries the higher pIC50? Please respond with the label that marks your chosen entry.
A
(A: 9.05, B: 7.82)

A = Cc1cc(Oc2c(C(F)(F)F)nc(-c3ncccc3Cl)[nH]c2=O)ccc1Cl [Example 197]
B = CCc1cc(-c2nc(C(F)(F)F)c(Oc3ccc(Cl)c(Cl)c3)c(=O)[nH]2)no1 [Example 218]
C = O=c1[nH]c(NC2CCOC2)nc(C(F)(F)F)c1Oc1ccc(Cl)c(Cl)c1 (stereo not shown) [Example 245]
D = O=c1[nH]c(Cn2cncn2)nc(C(F)(F)F)c1Cc1ccc(Cl)c(Cl)c1 [Example 173]
Let's sort these by pIC50, smallest first. Go ahead? Please reply with the labels ordered as requested. Many thanks.
D, C, B, A
(D: 6.59, C: 6.80, B: 8.41, A: 8.89)

I = COc1conc1-c1nc(C(F)(F)F)c(Oc2ccc(Cl)c(C(F)(F)F)c2)c(=O)[nH]1 [Example 180]
II = O=c1[nH]c(-c2ncccc2Br)nc(C(F)(F)F)c1Oc1ccc(Cl)c(C(F)(F)F)c1 [Example 182]
Please indicate which has the smaller reported pIC50: I , or II . Write down the label of the entry you select.
I
(I: 9.00, II: 9.52)

a = O=c1[nH]c(-c2cc[nH]n2)nc(C(F)(F)F)c1Cc1ccc(Cl)c(C(F)(F)F)c1 [Example 72]
b = COc1ccc(-c2nc(C(F)(F)F)c(Oc3ccc(Cl)c(Cl)c3)c(=O)[nH]2)nc1 [Example 148]
Of the two listed items, which has the higher pIC50? First: a Second: b Please indicate the selected item by its label.
a
(a: 9.15, b: 7.38)

###

MEASURED_ON: murine CCR2 (Mus musculus, UniProt P51683)
Construct: host or cells: U2OS β-arrestin cell line
Sequence (P51683 whole entry): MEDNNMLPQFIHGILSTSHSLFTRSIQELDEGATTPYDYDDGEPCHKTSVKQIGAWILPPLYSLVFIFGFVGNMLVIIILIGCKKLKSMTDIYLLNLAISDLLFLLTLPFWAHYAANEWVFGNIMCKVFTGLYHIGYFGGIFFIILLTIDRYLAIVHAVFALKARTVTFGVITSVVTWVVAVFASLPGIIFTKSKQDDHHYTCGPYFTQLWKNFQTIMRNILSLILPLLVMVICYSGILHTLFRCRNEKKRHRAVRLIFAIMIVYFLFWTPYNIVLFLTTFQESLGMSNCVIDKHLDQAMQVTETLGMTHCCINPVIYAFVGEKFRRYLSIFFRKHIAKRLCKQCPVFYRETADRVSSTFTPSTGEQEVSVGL
MEASUREMENT_PROTOCOL: Functional β-arrestin recruiting test with murine MCP-1 (B-2b)
Assay type: cell-based
MEASUREMENT_CONTEXT: U2OS β-arrestin cell line transfected with murine CCR2; agonist murine MCP-1; in some cases means of several determinations
TEST_READOUT: IC50 (nM)

[[record]]
chemical_smiles = "O=c1[nH]c(-c2nsc(Cl)c2Cl)nc(C(F)(F)F)c1Oc1ccc(Cl)c(C(F)(F)F)c1"
output_unit = "nM"
numeric_result = 227

[[record]]
chemical_smiles = "O=c1[nH]c(-c2ccon2)nc(C(F)(F)F)c1Oc1ccc(Cl)c(Cl)c1"
output_unit = "nM"
numeric_result = 44

[[record]]
chemical_smiles = "Cn1cnc(-c2nc(C(F)(F)F)c(Cc3ccc(Cl)c(Cl)c3)c(=O)[nH]2)c1"
output_unit = "nM"
numeric_result = 439

[[record]]
chemical_smiles = "COc1cncnc1-c1nc(C(F)(F)F)c(Oc2ccc(Cl)c(C(F)(F)F)c2)c(=O)[nH]1"
output_unit = "nM"
numeric_result = 44


A = COCc1cc(-c2nc(C(F)(F)F)c(Oc3ccc(Cl)c(Cl)c3)c(=O)[nH]2)no1
B = COc1csnc1-c1nc(C(F)(F)F)c(Oc2ccc(Cl)c(C(F)(F)F)c2)c(=O)[nH]1
C = O=c1[nH]c(-c2nscc2O)nc(C(F)(F)F)c1Oc1ccc(Cl)c(C(F)(F)F)c1
D = O=c1[nH]c(-c2ncc(F)cc2F)nc(C(F)(F)F)c1Oc1ccc(Cl)c(Cl)c1
List items by IC50 in falling order. Put the labels in the requested order and list them out.
A, D, C, B

###

MEASURED_ON: murine CCR2 (Mus musculus)
Construct: host or cells: U2OS β-arrestin cell line
MEASUREMENT_PROTOCOL: Functional β-arrestin recruiting test with human MCP-1 (B-2a)
Assay type: cell-based
MEASUREMENT_CONTEXT: U2OS β-arrestin cell line transfected with murine CCR2; agonist human MCP-1 at EC50 (about 3 nM); in some cases means of several determinations
TEST_READOUT: IC50 (nM)

P = Cn1cnc(-c2nc(C(F)(F)F)c(Oc3ccc(Cl)c(C(F)(F)F)c3)c(=O)[nH]2)c1 [Example 59]
Q = Cc1cccc(-c2nc(C(F)(F)F)c(Oc3ccc(Cl)c(Cl)c3)c(=O)[nH]2)n1 [Example 9]
Field: lower IC50 | Options: P / Q // return label of chosen record
P

###

MEASURED_ON: murine CCR2 (Mus musculus)
Construct: host or cells: U2OS β-arrestin cell line
MEASUREMENT_PROTOCOL: Functional β-arrestin recruiting test with murine MCP-1 (B-2b)
Format: cell-based
MEASUREMENT_CONTEXT: U2OS β-arrestin cell line transfected with murine CCR2; agonist murine MCP-1; in some cases means of several determinations
TEST_READOUT: IC50 (nM)

// solved cases for IC50 follow
[[record]]
compound = "Cc1cc(-c2nc(C(F)(F)F)c(Oc3ccc(Cl)c(Cl)c3)c(=O)[nH]2)nn1C [Example 54]"
test_readout = "IC50"
output_unit = "nM"
numeric_result = 458

[[record]]
compound = "COc1nccnc1-c1nc(C(F)(F)F)c(Oc2ccc(Cl)c(C(F)(F)F)c2)c(=O)[nH]1 [Example 116]"
test_readout = "IC50"
output_unit = "nM"
numeric_result = 37

[[record]]
compound = "Cc1cc(-c2nc(C(F)(F)F)c(Oc3ccc(Cl)c(C(F)(F)F)c3)c(=O)[nH]2)nn1C [Example 170]"
test_readout = "IC50"
output_unit = "nM"
numeric_result = 84


1 = Cc1ccc(-c2nc(C(F)(F)F)c(Oc3ccc(Cl)c(Cl)c3)c(=O)[nH]2)nc1C [Example 157]
2 = CC(=O)Nc1ccc2c(-c3nc(C(F)(F)F)c(Oc4ccc(Cl)c(C(F)(F)F)c4)c(=O)[nH]3)noc2c1 [Example 209]
3 = Cn1nc(-c2nc(C(F)(F)F)c(Oc3ccc(Cl)c(Cl)c3)c(=O)[nH]2)c2cccnc21 [Example 205]
// smallest IC50 at index 0, largest at the end Sort the labels as requested; that list is your answer.
2, 1, 3
(2: 368 nM, 1: 1510 nM, 3: 2490 nM)

###

MEASURED_ON: human CCR2 (Homo sapiens)
MEASUREMENT_PROTOCOL: Functional Ca2+ release test (B-1)
MEASUREMENT_CONTEXT: Chem-1 cell line transfected with human CCR2; 50% inhibition of the MCP-1 effect, MCP-1 at EC50 (about 5 nM); in some cases means of several determinations
TEST_READOUT: IC50 (nM)

Consider the worked cases shown below.
[[record]]
chemical_smiles = "O=c1[nH]c(-c2ncccc2Cl)nc(C(F)(F)F)c1Oc1cccc(Cl)c1"
test_readout = "IC50"
numeric_result = 75

[[record]]
chemical_smiles = "Cn1nc(-c2nc(C(F)(F)F)c(Oc3ccc(Cl)c(C(F)(F)F)c3)c(=O)[nH]2)c2c(Cl)cccc21"
test_readout = "IC50"
numeric_result = 3.3

[[record]]
chemical_smiles = "O=c1[nH]c(-c2cnccn2)nc(C(F)(F)F)c1Oc1ccc(Cl)c(C(F)(F)F)c1"
test_readout = "IC50"
numeric_result = 3.8

[[record]]
chemical_smiles = "O=c1[nH]c(-c2ncccc2Cl)nc(C(F)(F)F)c1Oc1ccc(Cl)c(Cl)c1"
test_readout = "IC50"
numeric_result = 1

[[record]]
chemical_smiles = "O=c1[nH]c(Cc2ccccn2)nc(C(F)(F)F)c1Cc1ccc(Cl)c(Cl)c1"
test_readout = "IC50"
numeric_result = 90

[[record]]
chemical_smiles = "Cc1n[nH]c(Cc2nc(C(F)(F)F)c(Cc3ccc(Cl)c(Cl)c3)c(=O)[nH]2)n1"
test_readout = "IC50"
numeric_result = 72

[[record]]
chemical_smiles = "CN(C)c1ccc(-c2nc(C(F)(F)F)c(Oc3ccc(Cl)c(C(F)(F)F)c3)c(=O)[nH]2)nc1"
test_readout = "IC50"
numeric_result = 2.1

[[record]]
chemical_smiles = "COc1c[nH]nc1-c1nc(C(F)(F)F)c(Oc2ccc(Cl)c(C(F)(F)F)c2)c(=O)[nH]1"
test_readout = "IC50"
numeric_result = 0.6

[[record]]
chemical_smiles = "COc1ccc2nc(-c3nc(C(F)(F)F)c(Oc4ccc(Cl)c(Cl)c4)c(=O)[nH]3)ccc2c1"
test_readout = "IC50"
numeric_result = 51

[[record]]
chemical_smiles = "COc1cccnc1-c1nc(C(F)(F)F)c(Oc2ccc(Cl)c(OC(F)(F)F)c2)c(=O)[nH]1"
test_readout = "IC50"
numeric_result = 1.4


I = COc1cn(C)nc1-c1nc(C(F)(F)F)c(Oc2ccc(Cl)c(C(F)(F)F)c2)c(=O)[nH]1
II = COCc1cc(-c2nc(C(F)(F)F)c(Oc3ccc(Cl)c(Cl)c3)c(=O)[nH]2)no1
Quick check, higher IC50 between I and II ? Field: selected label. Fill in the label of the entry you choose.
II

P = O=c1[nH]c(-c2ccnnc2)nc(C(F)(F)F)c1Oc1ccc(Cl)c(C(F)(F)F)c1
Q = CC(C)Oc1ccnc(-c2nc(C(F)(F)F)c(Oc3ccc(Cl)c(C(F)(F)F)c3)c(=O)[nH]2)c1
Which of the two items, P and Q , has the greater recorded IC50? Respond using the label that marks the chosen record.
P

A = Nc1ncnn1-c1nc(C(F)(F)F)c(Oc2ccc(Cl)c(Cl)c2)c(=O)[nH]1
B = O=c1[nH]c(-n2ccc(C(F)(F)F)n2)nc(C(F)(F)F)c1Oc1ccc(Cl)c(Cl)c1
Lower IC50: A or B ? Answer format: the label of the selected item.
A
(A: 4.2 nM, B: 113 nM)
